Molecular target: delta opioid receptor (Mus musculus, UniProt P32300)
Construct: NG108-15 cell membranes were purchased from Applied Cell Sciences (Rockville, Md.); host or cells: NG108-15 cell membranes
Sequence (P32300 whole entry): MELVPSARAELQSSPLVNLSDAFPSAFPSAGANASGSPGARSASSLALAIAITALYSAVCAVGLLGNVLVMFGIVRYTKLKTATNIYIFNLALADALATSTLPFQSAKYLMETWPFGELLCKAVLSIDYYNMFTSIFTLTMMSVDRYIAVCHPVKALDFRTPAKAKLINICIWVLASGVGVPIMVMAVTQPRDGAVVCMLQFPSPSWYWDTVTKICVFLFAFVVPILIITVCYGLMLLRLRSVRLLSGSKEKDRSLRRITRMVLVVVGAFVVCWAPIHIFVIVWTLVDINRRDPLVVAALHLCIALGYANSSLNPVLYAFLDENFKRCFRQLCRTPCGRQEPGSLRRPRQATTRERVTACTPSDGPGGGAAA
Test: [35S]GTPγS binding assay in NG108-15 cell membranes (delta opioid functional assay), 200 nM screen
Type: biochemical
Conditions: NG108-15 cell membranes; averages if tested more than once; read-out: GTPγS δ-opioid receptor EC50
pEC50: −log10 of the molar value.
Kind request: treat 6 as inclusive, so pEC50 at 6 or higher is Satisfied, anything lower is Not satisfied.

Problem: Entry COc1ccc(Oc2nc(-c3cncc(F)c3)ncc2NC[C@@H]2CCCN2)c(F)c1F [Cpd 102] : is its pEC50 no less than 6?
Result: Satisfied

Problem: How about this compound: Fc1cncc(-c2ncc(NC[C@@H]3CCCN3)c(Oc3ccc(Cl)cc3)n2)c1 [Cpd 128]
Result: Satisfied

Problem: How about this compound: Cc1ccc(Oc2nc(-c3cccnc3)ncc2NC[C@@H]2CCCN2)cc1 [Cpd 149]
Result: Satisfied

Problem: How about this compound: Cc1nc2ccc(Oc3nc(-c4cncnc4)ncc3NC[C@@H]3CCCN3)cc2s1 [Cpd 91]
Result: Not satisfied

Problem: How about this compound: CCCOc1ccc(Oc2nc(-c3cncc(F)c3)ncc2NC[C@@H]2CCCN2)cc1 [Cpd 115]
Result: Not satisfied

Problem: How about this compound: CSc1ccc(Oc2nc(-c3cncnc3)ncc2NC[C@@H]2CCCN2)cc1 [Cpd 151]
Result: Satisfied

Problem: How about this compound: COc1ccc(Oc2nc(-c3ccnc(SC)n3)ncc2NC[C@@H]2CCCN2)cc1 [Cpd 66]
Result: Satisfied

Problem: How about this compound: CCc1ccc(Oc2nc(-c3cncc(F)c3)ncc2NC[C@@H]2CCCN2)cc1 [Cpd 182]
Result: Satisfied

Problem: How about this compound: COc1ccc(Oc2nc(-c3cccnc3)ncc2N2CCN[C@@H](C)C2)cc1 [Cpd 356]
Result: Satisfied

Problem: How about this compound: COc1ccc(Oc2nc(-c3cc(C)cc(C)c3)ncc2NC[C@@H]2CCCN2)cc1 [Cpd 92]
Result: Satisfied

Problem: How about this compound: N#Cc1ccc(Oc2nc(-c3cccnc3)ncc2NC[C@@H]2CCCN2)cc1 [Cpd 136]
Result: Not satisfied

Problem: How about this compound: O=C(Nc1cccc(Oc2nc(-c3cccnc3)ncc2NC[C@@H]2CCCN2)c1)OCc1ccccc1 [Cpd 188]
Result: Satisfied

Problem: How about this compound: N#Cc1cncc(-c2ncc(NC[C@@H]3CCCN3)c(Oc3ccc4ncsc4c3)n2)c1 [Cpd 86]
Result: Satisfied

Problem: How about this compound: COc1ccc(Oc2nc(-c3cncc(C#N)c3)ncc2NCCN)cc1 [Cpd 293]
Result: Satisfied

Problem: How about this compound: COc1ccc(Oc2nc(-c3cncc(C#N)c3)ncc2NC[C@H]2CCCC[C@@H]2N)cc1 [Cpd 299]
Result: Satisfied

Problem: How about this compound: COc1ccc(Oc2nc(-c3cncc(C)c3)ncc2NCCN)cc1 [Cpd 296]
Result: Satisfied

Problem: How about this compound: COc1ccc(Oc2nc(-c3cncc(C#N)c3)ncc2N2CCC[C@@H](N)C2)cc1 [Cpd 330]
Result: Satisfied

Problem: How about this compound: COc1ccc(Oc2nc(-c3cn[nH]c3)ncc2NC[C@@H]2CCCN2)cc1 [Cpd 65]
Result: Satisfied
